# system-under-test: RAR-β (Homo sapiens)
# Sequence (P10826 with tags, fused parts or gaps limits assumed, species assumed): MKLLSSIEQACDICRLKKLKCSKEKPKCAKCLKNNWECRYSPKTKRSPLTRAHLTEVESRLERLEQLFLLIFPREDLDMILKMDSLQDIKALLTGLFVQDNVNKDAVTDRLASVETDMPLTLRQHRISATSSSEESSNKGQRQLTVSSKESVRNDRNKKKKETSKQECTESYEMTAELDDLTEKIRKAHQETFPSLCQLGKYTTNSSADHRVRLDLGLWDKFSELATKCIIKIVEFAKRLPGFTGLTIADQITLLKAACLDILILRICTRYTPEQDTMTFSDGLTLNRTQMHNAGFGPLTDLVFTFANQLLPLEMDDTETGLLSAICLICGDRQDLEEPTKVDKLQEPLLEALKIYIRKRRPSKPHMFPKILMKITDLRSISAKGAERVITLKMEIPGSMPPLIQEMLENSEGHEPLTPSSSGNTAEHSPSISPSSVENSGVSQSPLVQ
# experimental-details: Receptor transactivation, GAL4-RAR chimeric receptor/CAT reporter in HeLa cells
# measurement-conditions: HeLa cells, 24 hours; 50% of the effect of 10^−6 M t-RA
measure-name: EC50 (nM)
Quick reminder: number only, in nM, skip the unit.

Value wanted: EC50 (RAR-β (Homo sapiens)) of entry "CC1(C)CC=C(c2ccccc2)c2cc(/C=C/c3ccc(C(=O)O)cc3Cl)ccc21"
10

* * *

# system-under-test: RAR-γ (Homo sapiens, UniProt P13631)
# Sequence (P13631 with tags, fused parts or gaps limits assumed, species assumed): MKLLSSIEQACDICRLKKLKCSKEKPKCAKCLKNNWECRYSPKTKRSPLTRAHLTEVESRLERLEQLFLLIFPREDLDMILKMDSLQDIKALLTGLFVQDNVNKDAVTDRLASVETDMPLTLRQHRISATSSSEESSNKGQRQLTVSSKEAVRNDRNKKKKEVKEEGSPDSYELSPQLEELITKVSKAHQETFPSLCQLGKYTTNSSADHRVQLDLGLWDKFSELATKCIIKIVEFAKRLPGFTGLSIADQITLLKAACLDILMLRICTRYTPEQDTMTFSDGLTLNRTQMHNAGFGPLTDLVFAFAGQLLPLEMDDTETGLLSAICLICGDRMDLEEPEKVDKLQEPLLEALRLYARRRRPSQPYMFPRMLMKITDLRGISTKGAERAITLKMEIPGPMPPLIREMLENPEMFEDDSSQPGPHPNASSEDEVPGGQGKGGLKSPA
# experimental-details: Transactivation competition assay (antagonist activity) in transfected HeLa cells
# Format: cell-based
# measurement-conditions: inhibition of transactivation by 10^−7 M t-RA, 16 hours
measure-name: Competition RAR-γ % MAX (%)
Quick reminder: number only, in %, skip the unit.

>  <compound>
CC1(C)CC=C(C#Cc2ccccc2)c2cc(/C=C/c3ccc(C(=O)O)cc3)ccc21 [Compound 5]

>  <measure-name>
Competition RAR-γ % MAX

>  <unit-text>
%

>  <meas-value>
100

$$$$
>  <compound>
CC1(C)CC=C(c2ccccc2)c2cc(/C=C/c3ccc(C(=O)O)cc3)ccc21 [Compound 4]

>  <measure-name>
Competition RAR-γ % MAX

>  <unit-text>
%

>  <meas-value>
100

$$$$
>  <compound>
COc1ccc(C2=CCC(C)(C)c3ccc(/C=C/c4ccc(C(=O)O)cc4)cc32)cc1 [Compound 7]

>  <measure-name>
Competition RAR-γ % MAX

>  <unit-text>
%

>  <meas-value>
100

$$$$
>  <compound>
CC1(C)CC=C(c2ccccc2)c2cc(/C=C/c3ccc(C(=O)O)cc3Cl)ccc21 [Compound 8]

>  <measure-name>
Competition RAR-γ % MAX

>  <unit-text>
%

>  <meas-value>
80

$$$$

// query Competition RAR-γ % MAX value for entry CC1(C)CC=C(c2ccc3ccccc3c2)c2cc(/C=C/c3ccc(C(=O)O)cc3)ccc21 [Compound 6]
100
